Each entry below carries its reported z-score.
- SYSTEM: NADPH oxidase 4 (Homo sapiens) (UniProt Q9NPH5)
- Sequence (Q9NPH5 whole entry, looked up): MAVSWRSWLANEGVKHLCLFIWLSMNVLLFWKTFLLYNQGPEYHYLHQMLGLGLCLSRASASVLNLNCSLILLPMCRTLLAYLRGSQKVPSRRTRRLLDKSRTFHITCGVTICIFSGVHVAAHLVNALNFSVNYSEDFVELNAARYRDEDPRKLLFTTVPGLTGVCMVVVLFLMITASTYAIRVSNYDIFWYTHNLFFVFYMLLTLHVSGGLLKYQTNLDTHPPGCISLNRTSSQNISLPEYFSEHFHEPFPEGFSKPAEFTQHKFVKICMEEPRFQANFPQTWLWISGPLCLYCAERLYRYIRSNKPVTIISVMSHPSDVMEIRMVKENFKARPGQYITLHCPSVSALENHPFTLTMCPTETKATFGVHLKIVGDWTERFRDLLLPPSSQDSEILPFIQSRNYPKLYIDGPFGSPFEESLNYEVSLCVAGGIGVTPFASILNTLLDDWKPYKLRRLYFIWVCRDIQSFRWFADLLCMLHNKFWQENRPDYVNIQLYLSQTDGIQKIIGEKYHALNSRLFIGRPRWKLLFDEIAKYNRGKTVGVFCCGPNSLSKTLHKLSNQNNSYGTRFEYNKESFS
- METHOD NOTES: NOX4-dependent H2O2 signal modulators, primary screen, NOX inhibitor project, cell-based, HEK293-NOX4, tetracycline-induced, Amplex Red fluorescence (AID 1160)
- DETAILS: 45 min, higher = more signal, called active from +8 up or from −8 down
Respond with the number and no other words.

| SMI | z-score |
| --- | --- |
| Cc1ccc(S[C@]2(C(=O)NC3CC3)CC(=O)N(Cc3ccccc3C(F)(F)F)[C@@H]2c2ccc(CO)cc2I)cc1 | -2.36 |
| O=C1N(CCS(=O)(=O)c2ccccc2)Cc2ccccc2[C@@H]2OC(c3ccc(OCCCO)cc3)=N[C@]12Cc1ccccc1 | -0.195 |
| NCCCCCCNC(=O)[C@@H]1C[C@@H]2C(=O)N[C@@H](Cc3ccccc3)C(=O)N2[C@@H]1c1ccc(O)cc1 | 1.3 |

Shift focus to the following entry.
Problem: Please report the recorded z-score for CC(C)C[C@@H]1NC(=O)[C@@H]2C[C@H](C(=O)NCCCCCNC(=O)CS)[C@H](c3cccc(OCCO)c3)N2C1=O .
Solution: 0.84

---

- SYSTEM: Luciferin 4-monooxygenase (Photinus pyralis) (UniProt P08659)
- Sequence (P08659 whole entry, looked up): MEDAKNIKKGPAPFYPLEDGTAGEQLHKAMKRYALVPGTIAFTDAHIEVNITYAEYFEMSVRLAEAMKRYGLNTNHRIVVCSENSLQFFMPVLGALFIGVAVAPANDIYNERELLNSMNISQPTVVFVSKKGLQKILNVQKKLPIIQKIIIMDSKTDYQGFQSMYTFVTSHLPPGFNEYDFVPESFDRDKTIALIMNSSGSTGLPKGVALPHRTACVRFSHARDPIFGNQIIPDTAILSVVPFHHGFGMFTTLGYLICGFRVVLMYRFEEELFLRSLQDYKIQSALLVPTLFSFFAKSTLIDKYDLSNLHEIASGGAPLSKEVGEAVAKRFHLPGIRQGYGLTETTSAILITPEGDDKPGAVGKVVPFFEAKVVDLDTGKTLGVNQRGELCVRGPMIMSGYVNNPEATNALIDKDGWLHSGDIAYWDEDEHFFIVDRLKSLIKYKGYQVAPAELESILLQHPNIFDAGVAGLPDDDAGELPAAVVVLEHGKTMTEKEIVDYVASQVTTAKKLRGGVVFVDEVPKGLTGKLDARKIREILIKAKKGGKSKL
- METHOD NOTES: firefly luciferase enzyme inhibitors, primary screen, biochemical, luminescence, purified enzyme, 2006 set (AID 1141);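 further: cell-free assay with purified firefly luciferase at 100 ng per well in PBS; test concentration not given here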
- DETAILS: SteadyGlo luminescence, 30 min, higher = more signal, called active from +8 up or from −8 down
EXPERIMENTAL READOUT: z-score
Give the figure only, with no unit attached.

| COMPOUND | SYSTEM | z-score |
| --- | --- | --- |
| CCOC(=O)C[C@H]1[C@H](OC(=O)c2ccc(-c3ccccc3)cc2)[C@@H](NC(=O)C2CCCCC2)c2cc(OCCCO)ccc2N1C(=O)c1ccc2ccccc2n1 | Luciferin 4-monooxygenase (Photinus pyralis) (UniProt P08659) | -0.784 |

Problem: Look up z-score: O=c1n(-c2ccccc2)c(=O)n2n1CC(COc1ccccc1)=C1[C@@H](CCc3ccccc3)OB(O)C[C@@H]12
Solution: -1.2

Problem: // repeat for CC(C)CNC(=O)[C@@H]1c2ccccc2C(=O)N(Cc2ccc(OC(F)(F)F)cc2)[C@H]1c1ccc(CO)cc1 and report
Solution: -1.25

---

- SYSTEM: NADPH oxidase 4 (Homo sapiens) (UniProt Q9NPH5)
- METHOD NOTES: NOX4-dependent H2O2 signal modulators, primary screen, NOX inhibitor project, cell-based, HEK293-NOX4, tetracycline-induced, Amplex Red fluorescence (AID 1160)
- DETAILS: 45 min, higher = more signal, called active from +8 up or from −8 down
Items are presented alongside their recorded z-score.
No unit in the answer, please; the number alone is enough.

Below: 6 compounds and their reported z-score.
| COMPOUND | EXPERIMENTAL READOUT | RECORDED RESULT |
| --- | --- | --- |
| C=CCN1C(=O)[C@@]2(O[C@@H](CCO)[C@H]([Si](C)(C)c3ccc(OC)cc3)[C@H]2C)c2cc(N3C(=O)c4cccc5cccc3c45)ccc21 | z-score | 0.606 |
| C=C(CCCC)/C(=C/C[C@H](OC(=O)c1ccncc1)c1ccc(CO)o1)c1cnc2ccccc2c1 | z-score | 1.15 |
| CCCNC(=O)[C@@]1(Sc2ccc(C)cc2)CC(=O)N(Cc2cc(C(F)(F)F)cc(C(F)(F)F)c2)[C@@H]1c1ccc(CO)cc1I | z-score | -1.29 |
| [N-]=[N+]=NCc1ccccc1C[C@]1(C(=O)NCc2ccccc2)N=C(c2ccc(OCCCO)cc2)O[C@H]1c1ccccc1 | z-score | 1.24 |
| COC(=O)C1=CC(c2ccc(CO)cc2)=CC(c2cccs2)N(C)C=C1C(=O)OC (configuration not stated) | z-score | -2.33 |
| CC(C)C(CO)N1C(=O)[C@@H]2[C@H]3C(=O)OCC=C[C@H]3OC23C=CCN(Cc2ccccc2)C(=O)[C@@H]13 (some centres not stated) | z-score | 0.118 |

// next item, z-score requested
Problem: # input compound: C=CCNC(=O)[C@@H]1[C@H]2C(=O)O[C@H](c3ccccc3)[C@H](c3ccccc3)N2[C@H](c2ccc(O)cc2)[C@@]12C(=O)Nc1ccccc12 ; wanted: its z-score
Solution: -1.9
